As shown below, each of these compounds has a reported pest or weed control at 250 g/ha value.
# System: Lolium perenne (LOLPE)
# assay-overview: Glasshouse assay for herbicidal activity (pre- and post-emergence), percentage phytotoxicity
# Format: in vivo
# condition-details: Lolium perenne, post-emergence, 360 h, post-emergence, 250 g/ha, 15 DAA, visual score (100%=total damage; 0%=no damage); read-out: LOLPE POST herbicidal activity (percentage phytotoxicity)
# unit: % | format: bare number

- compound: "Cc1cc(-c2ncc(Cl)cn2)cc(C)c1C1=C(OC(=O)C(C)(C)C)CC(CC(=O)NC(C)(C)C)C1=O (stereo not shown)"
  pest or weed control at 250 g/ha (%): 100
- compound: "COc1ccc(C(=O)OC2=C(c3c(C)cc(-c4ncc(Cl)cn4)cc3C)C(=O)C(CC(=O)NC(C)(C)C)C2)cc1 (stereo not shown) [Compound P1]"
  pest or weed control at 250 g/ha (%): 100
- compound: "Cc1cc(C)c(C2C(=O)CC(CC(=O)NCC3CSC3)C2=O)c(C)c1 (stereo not shown)"
  pest or weed control at 250 g/ha (%): 0
- compound: "Cc1cc(C)c(C2C(=O)CC(CC(=O)N3CC(C)CC(C)C3)C2=O)c(C)c1 (stereo not shown)"
  pest or weed control at 250 g/ha (%): 60
- compound: "C#CC(C)N(C)C(=O)CC1CC(=O)C(c2c(C)cc(C)cc2C)C1=O (single isomer, unassigned)"
  pest or weed control at 250 g/ha (%): 70
- compound: "CCCCCCCNC(=O)CC1CC(=O)C(c2c(C)cc(C)cc2C)C1=O (stereo not shown)"
  pest or weed control at 250 g/ha (%): 70
- compound: "CCOC(=O)OC1=C(c2c(C)cc(-c3ncc(Cl)cn3)cc2C)C(=O)C(CC(=O)NC(C)(C)C)C1 (stereo not shown)"
  pest or weed control at 250 g/ha (%): 100
- compound: "CCCCCNC(=O)CC1CC(=O)C(c2c(C)cc(C)cc2C)C1=O (stereo not shown)"
  pest or weed control at 250 g/ha (%): 80
- compound: "COCCCNC(=O)CC1CC(=O)C(c2c(C)cc(C)cc2C)C1=O (stereo not shown)"
  pest or weed control at 250 g/ha (%): 100
- compound: "Cc1cc(C)c(C2C(=O)CC(CC(=O)NC3CC(F)(F)C3)C2=O)c(C)c1 (stereo not shown)"
  pest or weed control at 250 g/ha (%): 70

Please supply the value of reported pest or weed control at 250 g/ha for the item Cc1cc(-c2ncc(Cl)cn2)cc(C)c1C1=C(OC(=O)c2ccc(F)cc2)CC(CC(=O)NC(C)(C)C)C1=O (stereo not shown) [Compound P2]
100

Please supply the value of reported pest or weed control at 250 g/ha for the item Cc1cc(C)c(C2C(=O)CC(CC(=O)NC3COC3)C2=O)c(C)c1 (stereo not shown)
40

Please supply the value of reported pest or weed control at 250 g/ha for the item Cc1cc(C)c(C2C(=O)CC(CC(=O)NC3CC(F)C3)C2=O)c(C)c1 (stereo not shown)
100

Please supply the value of reported pest or weed control at 250 g/ha for the item Cc1cc(C)c(C2C(=O)CC(CC(=O)N3CCC(C)CC3)C2=O)c(C)c1 (stereo not shown)
60

Please supply the value of reported pest or weed control at 250 g/ha for the item Cc1cc(C)c(C2C(=O)CC(CC(=O)NCC3CCC3)C2=O)c(C)c1 (stereo not shown)
80

Please supply the value of reported pest or weed control at 250 g/ha for the item COCCOCCCNC(=O)CC1CC(=O)C(c2c(C)cc(C)cc2C)C1=O (stereo not shown)
80
